Reference source: PubChem BioAssay AID1259415

assay: qHTS Assay for inhibitors of the human cytomegalovirus (HCMV); settings: HFF cells, HCMV-luciferase reporter, 72 h; at 57.5 µM; note: % is set by controls: 0 for no effect and ±100 for the full control effect
Hit rate of the full screen: of about 410,000 compounds, about 18,000 (4.4%) were called active. Roughly 7% stayed inconclusive and do not appear here. Cut-off read from the data, not from the text of the source: active = activity change below about -60%; inconclusive = no clear call, values can overlap the other calls; inactive = above about -39%. Shown is part of a subset that was picked to be rich in actives.
Would you mind answering with one of these outcomes? 1 (active), -1 (inactive)

# MOLECULE, CLASS_LABEL
data = [
    ("Cn1nc(-c2ccccc2)c2cc([N+](=O)[O-])ccc21", 1),
    ("O=C(NCc1cc(F)cc(C(F)(F)F)c1)C1CCC(=O)N(C2CCCC2)C1 (stereo unspecified)", -1),
    ("CCOc1ccccc1CN1CCN(C2CCC2)CC1CCO (stereo unspecified)", 1),
]

Lab log entry: CCOC(=O)N1CCN(C(c2ccnc3ccccc23)c2nnnn2-c2c(C)cccc2C)CC1 (stereo unspecified) — outcome as called in the assay?
-1

====

Known activity change, negative = inhibition of a selection of molecules
Experiment: qHTS Assay for inhibitors of the human cytomegalovirus (HCMV); note: % is set by controls: 0 for no effect and ±100 for the full control effect
Settings: HFF cells, HCMV-luciferase reporter, 72 h; at 57.5 µM; stronger effect = lower value
Procedure: NCGC Assay Overview: Infection with human cytomegalovirus (HCMV) continues to pose significant threats for pregnant women and immunocompromised hosts. […] This is a cell-based assay for HCMV inhibition in HFFs cells. […] At 72 h post infection cell lysates were collected and luciferase activity was determined using the Glomax-Multi + Detection System (Promega, Madison, WI). […]
Among all 410,000 compounds or so, about 18,000 (4.4%) were called active. Another 7% or so got no clear call; they are omitted. The sample as a whole holds a higher share of actives than the screen did.
Write the answer as a number in %, unit excluded.

// activity change, negative = inhibition value for "O=C(OCc1ccccc1)c1ccc(O)cc1" : 17.9

// activity change, negative = inhibition value for "C[C@@H]1NS(=O)(=O)c2cc(Cl)ccc2O[C@@H]1c1ccccc1" : -16.5

// activity change, negative = inhibition value for "CC(=O)c1ccc(NC(=O)c2nc3nc(C)cc(C(F)F)n3n2)cc1" : 19.3

// activity change, negative = inhibition value for O=C(NC(=S)NC1CCSC1=O)c1ccccc1F (stereo unspecified) : -2.85

// activity change, negative = inhibition value for "C/C(=N\NC(=O)c1ccccc1F)c1ccccn1" : -113

// activity change, negative = inhibition value for "COCCNC(=O)CSc1c(C)cnc2c1c(=O)n(C)c(=O)n2C" : 8.83

====

Experiment: qHTS Assay for inhibitors of the human cytomegalovirus (HCMV); note: % is set by controls: 0 for no effect and ±100 for the full control effect
Settings: HFF cells, HCMV-luciferase reporter, 72 h; at 57.5 µM; stronger effect = lower value
Protocol: NCGC Assay Overview: Infection with human cytomegalovirus (HCMV) continues to pose significant threats for pregnant women and immunocompromised hosts. […] This is a cell-based assay for HCMV inhibition in HFFs cells. […] At 72 h post infection cell lysates were collected and luciferase activity was determined using the Glomax-Multi + Detection System (Promega, Madison, WI). […]
Among all 410,000 compounds or so, about 18,000 (4.4%) were called active. Not shown: some 7% with an inconclusive outcome. Only a selection was taken, and actives are over-represented in it overall.
RECORDED_ENDPOINT: activity change, negative = inhibition (%)
Write the answer as a number in %, unit excluded.

# COMPOUND, NUMBER
measured = [
    ("CCOc1ccc2[nH]c3nc(SCC(=O)NC4CCCC4)nnc3c2c1", -31.8),
    ("COc1cccc(N2CCN(c3ccc4nnc(CCC(=O)N5CCN(C)CC5)n4n3)CC2)c1", -14.4),
    ("CCOC(=O)c1ccc(NC(=O)C2CC(=O)N(c3ccc(C(C)C)cc3)C2)cc1 (stereo unspecified)", 46.5),
    ("O=C(CSc1nnc2c(n1)[nH]c1ccccc12)NC1CCCCC1", -65.5),
    ("O=C(Cn1cc(-c2nnnn2-c2ccc(Cl)cc2)c(=O)c2ccccc21)c1ccccc1", -9.79),
    ("O=C(CN1CCN(Cc2ccc(F)cc2Cl)C1=O)NCc1cccs1", -20.5),
    ("COc1ccc2[nH]c3nc(SCC(=O)NC4CC4)nnc3c2c1", 13.8),
    ("Cc1nc(N2CCOCC2)c2c(C(=O)NCc3cccc(Cl)c3)c(C)oc2n1", -10.3),
    ("N#Cc1ccc(CSc2nnc(-c3ccccn3)n2-c2ccc(Cl)cc2)cc1", -9.16),
    ("Cc1ccc(-c2nc3cccc(C)n3c2Nc2ccc3c(c2)OCCO3)cc1", 76),
]

// activity change, negative = inhibition value for "CCOc1ccc(-c2cc3nc(C4CCN(C(=O)OC(C)(C)C)CC4)c(C(=O)Nc4ccc(C(=O)OC)cc4)cn3n2)cc1" : 24.4

// activity change, negative = inhibition value for "NS(=O)(=O)c1ccc(NC(=O)C(=O)Nc2ccc3nc4n(c(=O)c3c2)CCCCC4)cc1" : 13.4

====

experiment: qHTS Assay for inhibitors of the human cytomegalovirus (HCMV); conditions: HFF cells, HCMV-luciferase reporter, 72 h; at 57.5 µM; stronger effect = lower value; note: % is set by controls: 0 for no effect and ±100 for the full control effect
Screen size: about 410,000 compounds; about 18,000 (4.4%) were called active. Another 7% or so got no clear call; they are omitted. This excerpt belongs to a sample that is enriched for actives.
RECORDED_ENDPOINT: activity change, negative = inhibition (%)
Write the answer as a number in %, unit excluded.

Example compounds with recorded activity change, negative = inhibition:
# COMPOUND, activity change, negative = inhibition [%]
measured = [
    ("CCNC(=O)C1(C)CCCN1C(=O)c1ccc(N(C)C)cc1 (configuration not stated)", -8.81),
    ("COc1ccc(Cn2c(=O)c3oc4ccccc4c3n(CC(=O)Nc3ccc(F)cc3F)c2=O)cc1", 6.84),
    ("COC(=O)CC1Oc2ccccc2-n2cc(-c3ccccc3)nc21 (configuration not stated)", -14.2),
    ("Cc1ccc(-c2cc(C(=O)Oc3ccccc3Cl)no2)cc1C", 81.2),
    ("Cc1cc(NC(=O)CCC(=O)N(c2cccc(F)c2)C(C(=O)NC2CCCC2)c2ccncc2)no1 (configuration not stated)", -19.9),
]

// activity change, negative = inhibition value for "O=C(c1cccs1)c1cn(CCOc2ccc(Cl)cc2)c2ccccc12" : -4.55

// activity change, negative = inhibition value for "O=C(CSc1nc2ccccc2c(=O)n1-c1ccccc1F)N1CCOCC1" : -17.8

====

Experiment: qHTS Assay for inhibitors of the human cytomegalovirus (HCMV); note: % is set by controls: 0 for no effect and ±100 for the full control effect
Settings: HFF cells, HCMV-luciferase reporter, 72 h; at 57.5 µM; stronger effect = lower value
Description: NCGC Assay Overview: Infection with human cytomegalovirus (HCMV) continues to pose significant threats for pregnant women and immunocompromised hosts. […] This is a cell-based assay for HCMV inhibition in HFFs cells. […] At 72 h post infection cell lysates were collected and luciferase activity was determined using the Glomax-Multi + Detection System (Promega, Madison, WI). […]
About 18,000 (4.4%) of roughly 410,000 compounds were called active. Roughly 7% stayed inconclusive and do not appear here. Many of the other results were omitted from the sample, so actives are more common in it than they were.
// boundary case: activity change, negative = inhibition equal to -10% maps to Not met; strictly smaller maps to Met

# COMPOUND, CLASS_LABEL
records = [
    ("O=[N+]([O-])/C=C/c1ccc2c(ccn2Cc2ccccc2)c1", "Met"),
]

Record "CCOC(=O)c1ccc(NC(=O)c2csc3c2CCCCC3)cc1" : is its activity change, negative = inhibition strictly below -10%?
Not met

Record CC1C(c2ccccc2)=[N+]([O-])C2(CCCC2)N1O (stereo unspecified) : is its activity change, negative = inhibition strictly below -10%?
Not met

Record "COc1ccc(Cn2ccn(Cc3cccc(OC)c3)c(=O)c2=O)cc1" : is its activity change, negative = inhibition strictly below -10%?
Not met

Record "CCN(CC)c1ccc(NC(=O)Cn2nc3c(cc2=O)CCCC3)c(C)c1" : is its activity change, negative = inhibition strictly below -10%?
Met

Record "CCOc1cc(C(=O)OCC(=O)Nc2cccc(C)c2)ccc1OCC(=O)N1CCOCC1" : is its activity change, negative = inhibition strictly below -10%?
Not met

Record CC(c1ccco1)N(C(=O)c1ccc(S(=O)(=O)N2CCCCC2)cc1)c1ccccn1 (stereo unspecified) : is its activity change, negative = inhibition strictly below -10%?
Met

Record "COc1ccccc1N1CCN(c2ncnc3onc(-c4ccc(F)cc4)c23)CC1" : is its activity change, negative = inhibition strictly below -10%?
Met

Record "CCOc1cc(N2CCOCC2)c(OCC)cc1NC(=O)C1=NN(c2cccc(C)c2)C(=O)CC1" : is its activity change, negative = inhibition strictly below -10%?
Met

Record "O=c1c(=O)n(Cc2c(F)cccc2Cl)ccn1Cc1ccccc1" : is its activity change, negative = inhibition strictly below -10%?
Not met
